# assay_procedure: Human HepG2 cell viability assay in 384 well format
# Format: toxicity, cell-based
# Set-up: dose 125 nL, time 70.5 hour; concentration not given beside the values
# run_conditions: HepG2 cells, read-out: Inhibition
reported_property: cytotoxicity at 70.5 h (%)
# value in %; strip the unit string

Worked set:
# compound, value_reported
rows = [
    ("N#Cc1ccsc1C(=O)N1CCCCC1Cn1cccn1 (stereo unspecified)", 9.01),
    ("COc1ccc2[nH]nc(CN3CCC(C(C)N(C)C)CC3)c2c1 (stereo unspecified)", 1.23),
    ("COc1cccc(Cl)c1C(C(=O)O)N(C)Cc1c(C)n[nH]c1C (stereo unspecified)", -12.4),
    ("Cn1cc(C(=O)N2CCCC2c2[nH]ncc2C(N)=O)cn1 (stereo unspecified)", -5.5),
    ("Cc1noc([C@H]2C[C@H]3OCC[C@H]3N(Cc3cccs3)C2)n1", -3.05),
    ("CCc1c(C)sc2nc3n(CCN4CCOCC4)nc(SC)n3c(=O)c12", 5.28),
    ("c1ccc2nc(N3CCOC(Cn4cccn4)C3)cnc2c1 (stereo unspecified)", -11.7),
    ("Cc1c(CNCC(C)Oc2cccnc2)c2ccccc2n1CC(N)=O (stereo unspecified)", 2.14),
    ("COc1ccc(-c2nc(CN(C)Cc3nncn3C)c(C)o2)c(C)c1C", 5.19),
    ("Cc1n[nH]c(C(=O)N2CCCC(C)CC2)c1Br (stereo unspecified)", -5.15),
]

With those in mind, consider the next compound.
Query: Quick one: cytotoxicity at 70.5 h of COCCN1CCC12CCN(C(=O)Cc1cccs1)C2 (stereo unspecified) ?
Response: -7.8

###

# assay_procedure: Human HepG2 cell viability assay in 384 well format
# Assay type: toxicity, cell-based
# Set-up: dose 125 nL, time 70.5 hour; concentration not given beside the values
# run_conditions: HepG2 cells, read-out: Inhibition
reported_property: cytotoxicity at 70.5 h (%)
# value in %; strip the unit string

Worked set:
# molecule, output_unit, cytotoxicity at 70.5 h
records = [
    ("CCN1CC2(CCN(C(=O)C(C)Oc3ccc(F)cc3Cl)CC2)CC1=O (stereo unspecified)", "%", 25),
    ("CN1CC(=O)N(c2cccc(F)c2)CC12CCN(Cc1ccco1)C2 (stereo unspecified)", "%", -5.08),
    ("COc1ccc(OC)c(C2CCN(C(=O)C3CCOCC3)C2)c1 (stereo unspecified)", "%", -6.78),
    ("COc1cc(NCCNC(=O)c2ccc3[nH]ccc3c2)cc(OC)c1", "%", -13.8),
    ("CC(C)NC(=O)c1ccc2c(c1)C(c1nc[nH]n1)CN2C (stereo unspecified)", "%", -8.61),
]

Query: Quick one: cytotoxicity at 70.5 h of "Cc1cnn(C2CN(CC(=O)NCC3(c4ccccc4)CCC3)C2)c1" ?
Response: -2.82

###

# assay_procedure: Human HepG2 cell viability assay in 384 well format
# Assay type: toxicity, cell-based
# Set-up: dose 125 nL, time 70.5 hour; concentration not given beside the values
# run_conditions: HepG2 cells, read-out: Inhibition
reported_property: cytotoxicity at 70.5 h (%)
# value in %; strip the unit string

Query: Quick one: cytotoxicity at 70.5 h of "CCS(=O)(=O)N1CC(c2nc(-c3cccs3)no2)C1" ?
Response: -2.02

Query: Proceed to "N#CCCNC(=O)CN1CC(n2cccn2)C1"
Response: -1.56

Query: Proceed to "CN1CCN(CCOc2ccc(NC(=O)c3ccc[nH]3)cc2)CC1"
Response: -2.18

Query: Proceed to CS(=O)(=O)N1CCC2(CC1)CC(NCc1ccco1)c1ccccc12 (stereo unspecified)
Response: -1.03

Query: Proceed to "Cc1ccc(CN(C)C(=O)c2scnc2C)cc1"
Response: -3.98

Query: Proceed to CC(C)(C)C(=O)N1CCC(c2noc(C3CCC(=O)N3)n2)CC1 (stereo unspecified)
Response: -6.7

###

# assay_procedure: Human HepG2 cell viability assay in 384 well format
# Assay type: toxicity, cell-based
# Set-up: dose 125 nL, time 70.5 hour; concentration not given beside the values
# run_conditions: HepG2 cells, read-out: Inhibition
Consider the following compounds and their measured cytotoxicity at 70.5 h readings.
# value in %; strip the unit string

Worked set:
# compound, output_unit, value_reported
rows = [
    ("c1cncc(NCCNC2CCCNC2)c1 (stereo not drawn)", "%", 2.18),
    ("Cc1cc(CN2C[C@@H]3COC[C@]3(c3nnc(C)o3)C2)no1", "%", 16.2),
    ("Cc1ccc(C(=O)N2C[C@H]3CCCC(OCc4cccnc4)[C@H]3C2)cn1 (stereo partly drawn)", "%", -1.36),
    ("O=C(c1cnoc1)N1CCC[C@]2(C[C@@H](OCc3ccccn3)CO2)C1", "%", -9.96),
    ("O=C1CN(c2ccc(CNc3cncc(-n4cccn4)n3)cc2)CCN1", "%", -0.149),
    ("CC(C)C(C)N(C(=O)Cn1nc2n(c1=O)CCCCC2)C1CC1 (stereo not drawn)", "%", -11.4),
]

Query: Quick one: cytotoxicity at 70.5 h of "C[C@@H]1CN(Cc2nnc(-c3cccnc3)o2)CC[C@]1(C)O" ?
Response: 6.07

###

# assay_procedure: Human HepG2 cell viability assay in 384 well format
# Format: toxicity, cell-based
# Parameters: dose 125 nL, time 70.5 hour; concentration not given beside the values
# run_conditions: HepG2 cells, read-out: Inhibition
reported_property: cytotoxicity at 70.5 h (%)
# value in %; strip the unit string

Worked set:
# compound, output_unit, cytotoxicity at 70.5 h
rows = [
    ("CN(C)C(=O)Cn1c2c(ccc1=O)CCN(Cc1cnn(C)c1)CC2", "%", 2.17),
    ("Cn1ccc(C(=O)N2CCN(c3nccs3)CC2)cc1=O", "%", 2.52),
    ("Cc1noc(C)c1CN1CC[C@H]2O[C@@H](C(=O)N3CCCC3)CC[C@H]21", "%", 6.38),
    ("N[C@@H]1c2ccccc2C2(CCN(c3cc(C(F)(F)F)ccn3)CC2)[C@H]1O", "%", 39.4),
]

Query: Quick one: cytotoxicity at 70.5 h of CN1CCN(C(=O)Cc2csc(-c3ccsc3)n2)C(c2ccccc2)C1 (stereo not given) ?
Response: -3.75

###

# assay_procedure: Human HepG2 cell viability assay in 384 well format
# Assay type: toxicity, cell-based
# Design: dose 125 nL, time 70.5 hour; concentration not given beside the values
# run_conditions: HepG2 cells, read-out: Inhibition
reported_property: cytotoxicity at 70.5 h (%)
# value in %; strip the unit string

Worked set:
# compound, value_reported
rows = [
    ("Cc1noc(C)c1CN1CC[C@@H](OCC2CC2)[C@@H](Cc2ccccc2)C1", -4.91),
    ("Cc1nc(CN2CCN(C3CCOC3)Cc3cccnc32)cs1 (stereo not given)", -0.337),
    ("OC(CN(Cc1ccccc1)Cc1cscn1)c1cccs1 (stereo not given)", -2.62),
    ("Cc1ccc2c(ccn2CCC(=O)O)c1", -4.94),
]

Query: Quick one: cytotoxicity at 70.5 h of "O=c1[nH]c(COc2ccccc2Cl)nc2c1CCNC2" ?
Response: -4.85

Query: Proceed to "O=C(c1cc(-c2ccn(CC3CC3)n2)n2ccccc12)N1CCOCC1"
Response: -2.8

###

# assay_procedure: Human HepG2 cell viability assay in 384 well format
# Format: toxicity, cell-based
# Parameters: dose 125 nL, time 70.5 hour; concentration not given beside the values
# run_conditions: HepG2 cells, read-out: Inhibition
Consider the following compounds and their measured cytotoxicity at 70.5 h readings.
A complete answer gives the number and then names the unit.

Query: Quick one: cytotoxicity at 70.5 h of "O=C1CC2(CCN(Cc3ccc(C(F)(F)F)nc3)CC2)CN1" ?
Response: 8.74%

Query: Proceed to "Cc1nc(CNC(=O)CCN2CCN(c3ccccc3)CC2)oc1C"
Response: 2.07%

Query: Proceed to "NC(=O)CC1CCN(C(=O)NCc2ccc(-c3ccn[nH]3)cc2)CC1"
Response: -11.3%

Query: Proceed to "O=C(O)[C@H]1OCC(=O)N(Cc2cccc(Cl)c2)[C@@H]1c1ccccc1"
Response: -6.12%

Query: Proceed to CN1CCc2nc(C3CCCN(C(=O)CC4CCCCC4)C3)ncc2C1 (centres undefined)
Response: 0.186%

###

# assay_procedure: Human HepG2 cell viability assay in 384 well format
# Assay type: toxicity, cell-based
# Parameters: dose 125 nL, time 70.5 hour; concentration not given beside the values
# run_conditions: HepG2 cells, read-out: Inhibition
Consider the following compounds and their measured cytotoxicity at 70.5 h readings.
# value in %; strip the unit string

# compound, cytotoxicity at 70.5 h (%)
data = [
    ("CCN(C)CC(C)Cn1cnc(-c2ccccc2)c1-c1cncn1CC (configuration not stated)", -10.8),
    ("NC1CCN(c2nccn3c(=O)[nH]nc23)CC1", 22.8),
    ("COc1ccc2c(ccn2CCC(=O)NCCCC(=O)O)c1", -10.4),
    ("O=C(NCCOc1ncc(Cl)cc1Cl)c1ccncc1", 1.47),
    ("CCc1cc(N2CCC(Nc3ccc4nnc(C)n4n3)CC2)ncn1", 2.09),
    ("Cc1noc(C)c1CC(=O)N1CCc2sccc2C1", -4.18),
    ("Cc1nn(C)cc1CN1CCCCCC1c1ccccc1Cl (configuration not stated)", 17.7),
    ("Cn1cnc2c1CCN(CCCc1ccccc1)C2", -1.08),
    ("CN(CCN1CCCCCC1)C(=O)c1cc(CN2CCC(O)CC2)on1", -0.511),
    ("Cc1nn(C)c(C)c1CN1CCCC1c1nccc(CN(C)C)n1 (configuration not stated)", -0.0769),
]

Query: Quick one: cytotoxicity at 70.5 h of CN(c1ccncn1)C1CC2(CCN(C(=O)c3cccn3C)C2)C1 (configuration not stated) ?
Response: -0.487

Query: Proceed to CN1C(=O)CC(c2ccccc2)C12CCN(CC1CCOCC1)CC2 (configuration not stated)
Response: -6.6
